- testTarget: pooled human IgG
observable: Enzyme Activity Endpoint Assay: Fc (ng/µL)

protein	unitsSymbol	obsValue
PRT-36 (protein) MANQEIRYSEVTPYHVTSVWTKGVTPPANFTQGEDVFHAPYVANQGWYDITKTFNGKDDLLCGAATAGNMLHWWFDQNKDQIKRYLEEHPEKQKINFNGEQMFDVKEAIDTKNHQTDSKLFEYFKEKAFPYLSTKHLGVFPDHVIDMFINGYRLSLTNHGPTPVKEGSKDPRGGIFDAVFTRGDQSKLLTSRHDFKEKNLKEISDLIKKELTEGKALGLSHTYANVRINHVINLWGADFDSNGNLKAIYVTDSDSNASIGMKKYFVGVNSAGKVAISAKEIKEDNIGAQVLGLFTLSTGQDSWNQTN	ng/µL	123
PRT-7 (protein) MANQEIRYSEETPYHVTSVWTKGVTPPANFTQGEDVFHAPYVANQGWYDITKTFNGKDDLLCGAATAGNMLHWWFDQNKDQIERYLKKHPEKQKINFNGEQMFDVKEAIDTKDSQTDSKLFEYFKEKAFPYLSTKHLGVFPDHVIDMFINGYRLSLTNHGPTPVKEGSKDPRGGIFDAVFTRGDQSKLLTSRHDFKEKNLKEISDLIKKELTEGKALGLSHTYANVRINHVINLWGADFDSNGNLKAIYVTDSDSNASIGMKKYFVGVNSAGKVAISAKEIKEDNIGAQVLGLFTLSTGQDIWEQTN	ng/µL	137
PRT-29 (protein) MANQEIRYSEVTPYHVTSVWTKGVTPPANFTQGEDVFHAPYVANQGWYDITKTFNGKDDLLCGAATAGNMLHWWFDQNKDQIKRYLEEHPEKQKINFNGEQMFDVKEAIDTKNHQLDSKLFEYFKEKAFPYLSTKHLGVFPDHVIDMFINGYRLSLTNHGPTPVKEGSKDPRGGIFDAVFTRGDQSKLLTSRHDFKEKNLKEISDLIKQELTEGKALGLSHTYANVRINHVINLWGADFDSNGNLEAIYVTDSDSNASIGMKKYFVGVNSAGKVAISAKEIEEDNIGAQVLGLFTLSTGQDSWNQTN	ng/µL	95
PRT-32 (protein) MANQEIRYSEVTPYHVTSVWTKGVTPPANFTQGEDVFHAPYVANQGWYDITKTFNGKDDLLCGAATAGNMLHWWFDQNKDQIKRYLEEHPEKQKINFNGEQMFDVKEAIDTKNHQLDSKLFEYFKEKAFPYLSTKHLGVFPDHVIDMFINGYRLSLTNHGPTPVKEGSKDPRGGIFDAVFTRGDQSKLLTSRHDFKEKNLKEISDLIKKELTEGKALGLSHTYANVRINHVINLWGADFDSNGNLKAIYVTDSDSNASIGMKKYFVGVNSAGKVAISAKEIKEDNIGAQVLGLFTLSTGQDIWNQTN	ng/µL	124

src = patent US20250027068
